- tgt: β2-adrenergic receptor (Mus musculus, UniProt P18762)
- Sequence (P18762 whole entry): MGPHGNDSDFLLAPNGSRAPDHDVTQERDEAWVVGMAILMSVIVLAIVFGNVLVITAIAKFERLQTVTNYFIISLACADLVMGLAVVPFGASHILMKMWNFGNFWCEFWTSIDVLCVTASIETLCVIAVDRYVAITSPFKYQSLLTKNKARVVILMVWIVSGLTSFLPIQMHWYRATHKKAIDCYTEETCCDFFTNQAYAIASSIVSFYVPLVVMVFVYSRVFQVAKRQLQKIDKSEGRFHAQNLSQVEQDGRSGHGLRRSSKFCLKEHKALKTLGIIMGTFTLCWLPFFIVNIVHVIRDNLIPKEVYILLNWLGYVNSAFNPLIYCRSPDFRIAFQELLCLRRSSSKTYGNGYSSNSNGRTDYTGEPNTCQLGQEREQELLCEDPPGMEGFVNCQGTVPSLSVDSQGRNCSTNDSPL
- Type: in vivo, mice
- condition.summary: 28 days of administration
property: Increased β2AR density

[[record]]
molecule = "CC(C)(C)NCC(O)c1ccc(O)c(CO)c1 (stereo not shown)"
result = "no"

[[record]]
molecule = "COc1ccccc1OCCNCC(O)COc1cccc2[nH]c3ccccc3c12 (stereo not shown)"
result = "yes"

[[record]]
molecule = "C=CCc1ccccc1OCC(O)CNC(C)C (stereo not shown)"
result = "no"

[[record]]
molecule = "CC(C)(C)NCC(O)COc1cccc2c1CC(O)C(O)C2 (stereo not shown)"
result = "yes"


====

- tgt: β2-adrenergic receptor (Mus musculus)
- Type: in vivo, mice
- condition.summary: 15 minutes of administration
- Description: β2-adrenergic receptor numbers were measured in asthmatic mice as follows. […] Mice were sacrificed and lung membranes were isolated as follows. […] The final pellet was suspended in 200 μL of 25 mM Tris-HCl (pH 7.4); membrane protein concentration was determined by BCA protein assay kit. […] The filters were washed three times with 250 μL of cold wash buffer (25 mM Tris-HCl, pH 7.4) and the radioactivity determined in a counter. […] Bmax is determined by nonlinear regression of the saturation binding curves.
property: Increased β2AR density

[[record]]
compound = "COc1ccccc1OCCNCC(O)COc1cccc2[nH]c3ccccc3c12 (stereo not shown)"
result = "no"

[[record]]
compound = "CC(C)(C)NCC(O)COc1cccc2c1CC(O)C(O)C2 (stereo not shown)"
result = "no"

[[record]]
compound = "CC(C)(C)NCC(O)c1ccc(O)c(CO)c1 (stereo not shown)"
result = "yes"

[[record]]
compound = "C=CCc1ccccc1OCC(O)CNC(C)C (stereo not shown)"
result = "yes"

